Recorded % inhibition, FRET short substrate assay (negative = activation) by entry
Target: human BACE1 ECD (human, UniProt P56817); also: test concentration or dose not given here
Sequence (P56817 22-457): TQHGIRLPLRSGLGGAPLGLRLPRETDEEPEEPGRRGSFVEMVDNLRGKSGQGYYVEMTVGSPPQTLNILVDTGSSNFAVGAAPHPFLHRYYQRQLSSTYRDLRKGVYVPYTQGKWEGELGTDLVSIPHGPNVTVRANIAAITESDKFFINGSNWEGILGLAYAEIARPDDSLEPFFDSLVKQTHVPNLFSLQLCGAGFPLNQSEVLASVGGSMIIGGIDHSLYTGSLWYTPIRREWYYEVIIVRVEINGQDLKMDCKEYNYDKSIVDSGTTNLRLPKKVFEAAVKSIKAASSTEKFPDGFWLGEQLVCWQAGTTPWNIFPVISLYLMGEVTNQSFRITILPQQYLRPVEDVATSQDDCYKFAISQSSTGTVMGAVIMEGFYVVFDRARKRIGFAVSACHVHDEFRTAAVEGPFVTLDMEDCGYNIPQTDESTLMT
Assay: cell-based or functional assay
Give the value, in units of %, as a plain number.

Some solved entries appear below for comparison.
>>> value("5644 (antibody, V domains shown) VH: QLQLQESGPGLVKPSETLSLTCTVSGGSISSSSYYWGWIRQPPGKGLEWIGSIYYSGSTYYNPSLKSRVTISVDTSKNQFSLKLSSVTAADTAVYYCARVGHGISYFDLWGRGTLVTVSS VL: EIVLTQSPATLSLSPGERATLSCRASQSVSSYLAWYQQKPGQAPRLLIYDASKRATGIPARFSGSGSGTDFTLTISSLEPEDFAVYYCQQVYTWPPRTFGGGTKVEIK")
65
>>> value("5881 (antibody, V domains shown) VH: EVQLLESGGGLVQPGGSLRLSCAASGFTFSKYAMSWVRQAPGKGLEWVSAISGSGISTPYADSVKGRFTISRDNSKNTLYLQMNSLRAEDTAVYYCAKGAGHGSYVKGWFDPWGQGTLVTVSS VL: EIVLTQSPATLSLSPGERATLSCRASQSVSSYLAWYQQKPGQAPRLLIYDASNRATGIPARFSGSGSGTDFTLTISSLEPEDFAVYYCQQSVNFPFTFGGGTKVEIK")
97

IN: I am curious: what % inhibition, FRET short substrate assay (negative = activation) value has been reported for 5875 (antibody, V domains shown) VH: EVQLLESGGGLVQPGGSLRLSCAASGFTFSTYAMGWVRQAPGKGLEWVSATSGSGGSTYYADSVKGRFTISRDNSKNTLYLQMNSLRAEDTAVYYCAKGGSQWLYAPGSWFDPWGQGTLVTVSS VL: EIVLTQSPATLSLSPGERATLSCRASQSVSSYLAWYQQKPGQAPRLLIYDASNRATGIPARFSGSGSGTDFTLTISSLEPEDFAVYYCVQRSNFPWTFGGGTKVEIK ?
OUT: 51
